Data provenance is patent US10053457B2.

Please go through the items and note down their % block.
testedSystem: hERG K channel (Homo sapiens (Human), UniProt Q12809)
experimentSummary: hERG Q-Patch assay
Type: cell-based
measurementParameters: concentration 3000 nM; CHO cells expressing hERG; K+ tail current 3 min after application; mean of two or three experiments
A bare number is not enough; add the unit after it.

Field: example entries. Status: answers known.
O=C(Cn1cnc(C2CC2)n1)N1CCN(c2sc(C(F)(F)F)nc2-c2cnc(C(F)(F)F)nc2)C[C@H]1CCO [Example 31] :: 23%
CC(C)c1ncn(CC(=O)N2CCN(c3sc(C(F)(F)F)nc3-c3cnc(C(F)(F)F)nc3)C[C@H]2CO)n1 [Example 4] :: 13%
CCc1ccn(CC(=O)N2CCN(c3sc(C(F)(F)F)nc3-c3cnc(C(F)(F)F)nc3)C[C@H]2CO)n1 [Example 43] :: 25%

# input for lookup
Look up % block: Cc1nc(-c2ncn(CC(=O)N3CCN(c4sc(C(F)(F)F)nc4-c4cnc(C(F)(F)F)nc4)C[C@@H]3CO)n2)no1 [Example 18]
13%

----------
Please go through the items and note down their pIC50.
testedSystem: CXCR3 (Homo sapiens (Human))
experimentSummary: Receptor internalization assay in human whole blood (CXCR3 surface expression on CD4 positive cells, CXCL10)
measurementParameters: final CXCL10 9 nM, 30 min at 37° C., mean values
Method: Diluted compounds are then mixed with an equal volume of CXCL10 (Peprotech) diluted in PBS. […] After washing the cells with PBS containing 0.5% BSA, the samples are then analyzed in a flow cytometer (FACS Canto II, Becton Dickinson). For data analysis using FACSDiva software (Becton Dickinson), the mean fluorescence corresponding to CXCR3 cell surface expression was determined on CD4 positive cells. […]
Numbers only, as −log10 of the molar value.

Field: example entries. Status: answers known.
Cc1ncn(CC(=O)N2CCN(c3sc(C(F)(F)F)nc3-c3cnc(C(F)(F)F)nc3)C[C@@H]2CO)n1 [Example 16] :: 6.27
O=C(Cn1ccc2cc(F)ccc21)N1CCN(c2sc(C(F)(F)F)nc2-c2cnc(C(F)(F)F)nc2)C[C@@H]1CO [Example 14] :: 6.70
CCc1ncnn1CC(=O)N1CCN(c2sc(C(F)(F)F)nc2-c2cnc(C(F)(F)F)nc2)C[C@H]1CCO [Example 33] :: 6.19
CCc1ncn(CC(=O)N2CCN(c3sc(C(F)(F)F)nc3-c3cnc(C(F)(F)F)nc3)C[C@H]2CCO)n1 [Example 32] :: 7.03
CCOc1ncc(-c2nc(C(F)(F)F)sc2N2CCN(C(=O)Cn3cnc(C(F)(F)F)n3)[C@H](CO)C2)cn1 [Example 6] :: 6.11
O=C(Cn1cnc(C(F)F)n1)N1CCN(c2sc(C(F)(F)F)nc2-c2cnc(C(F)(F)F)nc2)C[C@@H]1CO [Example 38] :: 6.59
Cc1nc(C)n(CC(=O)N2CCN(c3sc(C(F)(F)F)nc3-c3cnc(C(F)(F)F)nc3)C[C@@H]2CO)n1 [Example 12] :: 6.49
CC(O)c1ncn(CC(=O)N2CCN(c3sc(C(F)(F)F)nc3-c3cnc(C(F)(F)F)nc3)C[C@@H]2CO)n1 (some centres unmarked) [Example 21] :: 6.13

For every item in the list below, what is its measured pIC50?
1. CCc1nc(C)n(CC(=O)N2CCN(c3sc(C(F)(F)F)nc3-c3cnc(C(F)(F)F)nc3)C[C@@H]2CO)n1 [Example 24]
2. CCc1ccn(CC(=O)N2CCN(c3sc(C(F)(F)F)nc3-c3cnc(C(F)(F)F)nc3)C[C@H]2CO)n1 [Example 43]
3. O=C(Cn1cnc(-c2ccccc2)n1)N1CCN(c2sc(C(F)(F)F)nc2-c2cnc(C(F)(F)F)nc2)C[C@@H]1CO [Example 19]
4. O=C(Cn1cnc(C2CC2)n1)N1CCN(c2sc(C(F)(F)F)nc2-c2cnc(C(F)(F)F)nc2)C[C@H]1CO [Example 3]

1: 6.45; 2: 7.39; 3: 5.48; 4: 6.72

For every item in the list below, what is its measured pIC50?
1. O=C(Cn1cnc(C2CCC2)n1)N1CCN(c2sc(C(F)(F)F)nc2-c2cnc(C(F)(F)F)nc2)C[C@H]1CCO [Example 29]
2. COCc1ncn(CC(=O)N2CCN(c3sc(C(F)(F)F)nc3-c3cnc(C(F)(F)F)nc3)C[C@@H]2CO)n1 [Example 17]

[6.80, 5.89]

----------
testedSystem: hERG K channel (Homo sapiens (Human))
experimentSummary: hERG Q-Patch assay
Type: cell-based
measurementParameters: concentration 3000 nM; CHO cells expressing hERG; K+ tail current 3 min after application; mean of two or three experiments
Please go through the items and note down their % block.
One number for each entry, in %.

Field: example entries. Status: answers known.
Cc1ccn(CC(=O)N2CCN(c3sc(C(F)(F)F)nc3-c3cnc(C(F)(F)F)nc3)C[C@H]2CO)n1 :: 15
O=C(Cn1cnc(-c2ccccc2)n1)N1CCN(c2sc(C(F)(F)F)nc2-c2cnc(C(F)(F)F)nc2)C[C@@H]1CO :: 41
COCc1ncn(CC(=O)N2CCN(c3sc(C(F)(F)F)nc3-c3cnc(C(F)(F)F)nc3)C[C@H]2CCO)n1 :: 9

# input for lookup
Look up % block: `CCOc1ncc(-c2nc(C(F)(F)F)sc2N2CCN(C(=O)Cn3nc(C)nc3C)[C@H](CO)C2)cn1`
45

----------
testedSystem: human CXCR3A (Homo sapiens (Human))
experimentSummary: FLIPR assay (CXCL10-induced calcium signal)
measurementParameters: CHO-K1 cells expressing human CXCR3A coupled to Galpha(16); CXCL10 agonist 20 nM; mean values
Simple rule here: IC50 less than 3 nM is rule met, otherwise rule not met.

CC(C)c1ncn(CC(=O)N2CCN(c3sc(C(F)(F)F)nc3-c3cnc(C(F)(F)F)nc3)C[C@@H]2CO)n1 :: rule not met

Now consider a different compound.
Does the reported IC50 of `CCc1ccn(CC(=O)N2CCN(c3sc(C(F)(F)F)nc3-c3cnc(C(F)(F)F)nc3)C[C@H]2CO)n1` stay below 3 nM?
rule met

----------
testedSystem: human CXCR3A (Homo sapiens (Human), UniProt P49682)
Sequence (P49682 whole entry): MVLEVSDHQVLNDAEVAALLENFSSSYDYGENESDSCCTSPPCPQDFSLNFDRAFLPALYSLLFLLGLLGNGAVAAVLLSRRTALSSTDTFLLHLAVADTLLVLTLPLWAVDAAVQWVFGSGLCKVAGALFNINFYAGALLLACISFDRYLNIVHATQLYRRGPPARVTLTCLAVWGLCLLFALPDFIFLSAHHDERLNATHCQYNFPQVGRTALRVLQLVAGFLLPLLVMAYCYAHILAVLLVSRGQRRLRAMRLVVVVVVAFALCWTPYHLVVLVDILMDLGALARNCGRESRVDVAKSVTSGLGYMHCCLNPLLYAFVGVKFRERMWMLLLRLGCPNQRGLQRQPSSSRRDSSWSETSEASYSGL
experimentSummary: FLIPR assay (CXCL10-induced calcium signal)
measurementParameters: CHO-K1 cells expressing human CXCR3A coupled to Galpha(16); CXCL10 agonist 20 nM; mean values
Simple rule here: IC50 less than 4 nM is Yes, otherwise No.

Consider the following illustrative entries.
CCc1ncn(CC(=O)N2CCN(c3sc(C(F)(F)F)nc3-c3cnc(C(F)(F)F)nc3)C[C@H]2CCO)n1 [Example 32] :: Yes
CCc1nc(C)n(CC(=O)N2CCN(c3sc(C(F)(F)F)nc3-c3cnc(C(F)(F)F)nc3)C[C@@H]2CO)n1 [Example 24] :: No
O=C(Cn1cnc(C(F)(F)F)n1)N1CCN(c2sc(C(F)(F)F)nc2-c2cnc(C3CC3)nc2)C[C@H]1CO [Example 9] :: Yes

Now consider a different compound.
Does the reported IC50 of O=C(Cn1cnc2cccnc21)N1CCN(c2sc(C(F)(F)F)nc2-c2cnc(C(F)(F)F)nc2)C[C@@H]1CO [Example 26] stay below 4 nM?
Yes

----------
testedSystem: CXCR3 (Homo sapiens (Human), UniProt P49682)
Sequence (P49682 whole entry): as above
experimentSummary: Receptor internalization assay in human whole blood (CXCR3 surface expression on CD4 positive cells, CXCL10)
measurementParameters: final CXCL10 9 nM, 30 min at 37° C., mean values
propertyName: IC50

Field: example entries. Status: answers known.
COCc1ncn(CC(=O)N2CCN(c3sc(C(F)(F)F)nc3-c3cnc(C(F)(F)F)nc3)C[C@H]2CCO)n1 [Example 37] :: 393 nM
CC(C)c1ncn(CC(=O)N2CCN(c3sc(C(F)(F)F)nc3-c3cnc(C(F)(F)F)nc3)C[C@H]2CCO)n1 [Example 34] :: 84.8 nM

# input for lookup
Hello, I am looking for reported IC50 with CXCR3 (Homo sapiens (Human), UniProt P49682) for O=C(Cn1ccc(C2CC2)n1)N1CCN(c2sc(C(F)(F)F)nc2-c2cnc(C(F)(F)F)nc2)C[C@H]1CO [Example 44] . Could you help?
76 nM

----------
testedSystem: hERG K channel (Homo sapiens (Human), UniProt Q12809)
experimentSummary: hERG Q-Patch assay
Type: cell-based
measurementParameters: concentration 3000 nM; CHO cells expressing hERG; K+ tail current 3 min after application; mean of two or three experiments
propertyName: % block (%)
Answers are plain numbers, in %.

O=C(Cn1ccc(C2CC2)n1)N1CCN(c2sc(C(F)(F)F)nc2-c2cnc(C(F)(F)F)nc2)C[C@H]1CO :: 34
Cc1nc(C)n(CC(=O)N2CCN(c3sc(C(F)(F)F)nc3-c3cnc(C(F)(F)F)nc3)C[C@@H]2CO)n1 :: 3

For every item in the list below, what is its measured % block?
1. Cc1ccn(CC(=O)N2CCN(c3sc(C(F)(F)F)nc3-c3cnc(C(F)(F)F)nc3)C[C@@H]2CO)n1
2. COc1ccc2c(ccn2CC(=O)N2CCN(c3sc(C(F)(F)F)nc3-c3cnc(C(F)(F)F)nc3)C[C@@H]2CO)c1
3. Cc1ncnn1CC(=O)N1CCN(c2sc(C(F)(F)F)nc2-c2cnc(C(F)(F)F)nc2)C[C@H]1CCO
4. Cc1nc(C)n(CC(=O)N2CCN(c3sc(C(F)(F)F)nc3-c3cnc(C4CC4)nc3)C[C@H]2CO)n1

15
35
19
54

For every item in the list below, what is its measured % block?
1. Cc1ccn(CC(=O)N2CCN(c3sc(C(F)(F)F)nc3-c3cnc(C(F)(F)F)nc3)C[C@H]2CCO)n1
2. CC(C)(C)c1ncn(CC(=O)N2CCN(c3sc(C(F)(F)F)nc3-c3cnc(C(F)(F)F)nc3)C[C@H]2CCO)n1

32
25
